- SYSTEM_UNDER_TEST: T1, human Aβ peptide (1-40) biotinylated at the C terminus (human, UniProt P05067 672-711, biotinylated at the C-terminus)
- T1 construct: domain: β-amyloid peptide (1-40); Numbers 1-40 count on the β-amyloid peptide, not on APP; also called beta-amyloid 1-40 peptide (biotinylated at the C-terminus); streptavidin-captured beta-amyloid (1-40)
- ASSAY_NOTES: SPR Biacore 3000, Method A(i): C-terminally biotinylated β-amyloid 1-40 on streptavidin chip, antibody as analyte; Run 2
pKd: −log10 of the molar value.

BINDER | pKd
Humanised 2E7 variant H2L1 (antibody, human IgG1, kappa, V domains shown, Human IgG1 with L235A and G237A, human kappa; also called L1+H2; H2L1 whole IgG) VH: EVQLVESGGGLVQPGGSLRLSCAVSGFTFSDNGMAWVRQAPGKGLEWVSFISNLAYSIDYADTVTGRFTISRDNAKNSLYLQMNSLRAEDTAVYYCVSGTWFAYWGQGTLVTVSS VL: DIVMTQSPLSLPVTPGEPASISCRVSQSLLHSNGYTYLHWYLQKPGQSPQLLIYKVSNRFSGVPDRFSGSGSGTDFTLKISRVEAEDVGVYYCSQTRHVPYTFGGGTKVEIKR | 10.30
